B1: TPR 5TU (parent)
chain: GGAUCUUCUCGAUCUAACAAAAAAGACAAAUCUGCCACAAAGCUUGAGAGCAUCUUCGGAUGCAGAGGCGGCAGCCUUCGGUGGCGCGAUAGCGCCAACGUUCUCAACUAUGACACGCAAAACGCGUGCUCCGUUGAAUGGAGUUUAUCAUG

variants of: B1; assay: polymerase ribozyme fitness, log enrichment relative to wild type (log ratio); higher = more active; in vitro selection for triplet polymerase activity
Variants at the floor of the assay were thinned out.
MEASURED PARAMETER: polymerase ribozyme fitness (log ratio)
Just the number, please, no unit attached.

Study these solved cases before continuing.
A52C C87U    -0.789
A110U U127A    -4.06
G124C U135A    -1.84
A19G U56A G86A G141U    -1.64
G50U U56A C114U    -2.18

Next up:
Lab book: polymerase ribozyme fitness (log ratio) of C57G C114A noted as -3.32
